Target: Kv7.3* (Homo sapiens, UniProt O43525, A315T)
Construct: Kv7.3* homomer expressed in Xenopus oocytes
Sequence (O43525 whole entry A315T): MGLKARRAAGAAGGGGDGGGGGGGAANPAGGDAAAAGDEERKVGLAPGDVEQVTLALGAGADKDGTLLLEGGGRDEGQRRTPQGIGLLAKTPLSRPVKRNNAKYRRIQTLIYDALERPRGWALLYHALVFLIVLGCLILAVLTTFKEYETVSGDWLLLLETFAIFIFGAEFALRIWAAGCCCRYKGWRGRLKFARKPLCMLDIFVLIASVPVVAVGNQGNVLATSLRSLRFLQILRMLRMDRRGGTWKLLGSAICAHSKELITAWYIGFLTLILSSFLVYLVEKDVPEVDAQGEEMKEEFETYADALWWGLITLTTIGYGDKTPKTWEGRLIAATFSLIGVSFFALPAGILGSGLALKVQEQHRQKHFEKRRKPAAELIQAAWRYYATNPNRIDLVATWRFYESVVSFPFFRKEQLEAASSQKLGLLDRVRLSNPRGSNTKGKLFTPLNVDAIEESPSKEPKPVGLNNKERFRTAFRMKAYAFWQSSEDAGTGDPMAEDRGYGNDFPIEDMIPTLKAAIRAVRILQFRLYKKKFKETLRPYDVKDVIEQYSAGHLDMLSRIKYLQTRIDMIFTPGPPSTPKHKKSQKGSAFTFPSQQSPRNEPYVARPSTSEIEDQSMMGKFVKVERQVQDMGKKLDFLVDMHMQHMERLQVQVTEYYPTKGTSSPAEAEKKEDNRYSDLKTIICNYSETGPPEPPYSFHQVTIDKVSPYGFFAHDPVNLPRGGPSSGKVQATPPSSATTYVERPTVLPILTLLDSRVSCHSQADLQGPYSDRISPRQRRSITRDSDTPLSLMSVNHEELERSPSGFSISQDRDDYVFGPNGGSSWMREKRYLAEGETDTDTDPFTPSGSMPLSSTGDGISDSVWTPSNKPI
Experiment: two-electrode voltage clamp, shift of V0.5act, dose response
measurement.label: pEC50
Answers are plain numbers, as −log10 of the molar value.

Form field pEC50, entry O=C(O)c1cc(O)ccc1O [GA, gentisic acid] : 9.10

Recorded values, source paper PMC11467302.
